Data origin: the MegaScale stability set (Tsuboyama et al. 2023)

B1: r4_43_TrROS_Hall (parent)
chain: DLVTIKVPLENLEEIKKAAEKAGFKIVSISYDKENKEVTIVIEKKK

variants of: B1; assay: folding stability dG (cDNA display proteolysis); higher = more stable; settings: PBS, room temperature
reported.endpoint: folding stability dG (kcal/mol)
Quick note: give the figure in kcal/mol, leave out the unit.

- mutation.id: "K44R"
  folding stability dG / kcal/mol: 3.83
- mutation.id: "E34V"
  folding stability dG / kcal/mol: 3.72
- mutation.id: "L12G"
  folding stability dG / kcal/mol: 3.16

Please look at the following variant next.
Entry L12K , folding stability dG reported as 3.03
